- target system: T1, human IgE (human, UniProt P01854 1-428)
- T1 construct: written under the same molecule; also called IgE (Abcam ab65866); soluble IgE
- T1 sequence (P01854 other isoform, or with tags, fused parts or gaps limits assumed, form in doubt): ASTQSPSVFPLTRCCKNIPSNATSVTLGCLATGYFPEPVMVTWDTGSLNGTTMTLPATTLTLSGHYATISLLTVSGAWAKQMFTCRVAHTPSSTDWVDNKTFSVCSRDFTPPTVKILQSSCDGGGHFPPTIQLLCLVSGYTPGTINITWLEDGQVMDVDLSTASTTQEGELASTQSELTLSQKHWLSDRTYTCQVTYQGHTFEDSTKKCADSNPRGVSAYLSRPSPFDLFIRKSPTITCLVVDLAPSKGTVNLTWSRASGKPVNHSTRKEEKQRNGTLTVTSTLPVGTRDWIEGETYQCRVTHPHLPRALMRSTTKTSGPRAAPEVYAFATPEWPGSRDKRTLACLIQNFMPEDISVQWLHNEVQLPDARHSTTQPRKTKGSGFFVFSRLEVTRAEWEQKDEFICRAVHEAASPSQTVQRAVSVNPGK
- protocol details: ELISA, clone lysate on IgE-coated plate
readout name: Confirm OD450 Duplicate2

Study these solved cases before continuing.
Tell us which Confirm OD450 Duplicate2 value is on record for 39C11 (VHH) VHH: EVQLLESGGGEVQPGGSLRLSCVASGLTFSSYNMGWLRQAPGKEREFVGLSGSSSTSTYYAESVKGRFTISRDNAKNTVYLQMTSLRAEDTAVYYCAARRLLSTYWSMRSWDFWGQGTLVTVEP
0.585

Tell me its Confirm OD450 Duplicate2 given 5A10 (VHH, also called hzB10v40 VHH, CDR1 site 5 S to A) VHH: EVQLLESGGGEVQPGGSLRLSCVASGLTFASYNMGWLRQAPGKEREFVGLSGSSSTSTYYAESVKGRFTISRDNAKNTVYLQMTSLRAEDTAVYYCAARRLLSTYWSDRSWDFWGQGTLVTVEP as the entry.
0.549

Indicate the recorded Confirm OD450 Duplicate2 value for this binder: 9B1 (VHH, also called hzB10v40 VHH, CDR1 site 9 M to V) VHH: EVQLLESGGGEVQPGGSLRLSCVASGLTFSSYNVGWLRQAPGKEREFVGLSGSSSTSTYYAESVKGRFTISRDNAKNTVYLQMTSLRAEDTAVYYCAARRLLSTYWSDRSWDFWGQGTLVTVEP
0.454

For the binder 9E8 (VHH, also called hzB10v40 VHH, CDR1 site 9 M to L) VHH: EVQLLESGGGEVQPGGSLRLSCVASGLTFSSYNLGWLRQAPGKEREFVGLSGSSSTSTYYAESVKGRFTISRDNAKNTVYLQMTSLRAEDTAVYYCAARRLLSTYWSDRSWDFWGQGTLVTVEP , give its measured Confirm OD450 Duplicate2 value.
0.539

Read the entry 2-1F11 (VHH, also called hzB10v40 VHH, CDR1 site 2 L to I) VHH: EVQLLESGGGEVQPGGSLRLSCVASGITFSSYNMGWLRQAPGKEREFVGLSGSSSTSTYYAESVKGRFTISRDNAKNTVYLQMTSLRAEDTAVYYCAARRLLSTYWSDRSWDFWGQGTLVTVEP and write its reported Confirm OD450 Duplicate2.
0.601

Supply Confirm OD450 Duplicate2 value. Item: 10E3 (VHH, also called hzB10v40 VHH, CDR1 site 10 G to S) VHH: EVQLLESGGGEVQPGGSLRLSCVASGLTFSSYNMSWLRQAPGKEREFVGLSGSSSTSTYYAESVKGRFTISRDNAKNTVYLQMTSLRAEDTAVYYCAARRLLSTYWSDRSWDFWGQGTLVTVEP
0.494

(1) 9D1 (VHH, also called hzB10v40 VHH, CDR1 site 9 M to I) VHH: EVQLLESGGGEVQPGGSLRLSCVASGLTFSSYNIGWLRQAPGKEREFVGLSGSSSTSTYYAESVKGRFTISRDNAKNTVYLQMTSLRAEDTAVYYCAARRLLSTYWSDRSWDFWGQGTLVTVEP
(2) 44A11 (VHH) VHH: EVQLLESGGGEVQPGGSLRLSCVASGLTFSSYNMGWLRQAPGKEREFVGLSGSSSTSTYYAESVKGRFTISRDNAKNTVYLQMTSLRAEDTAVYYCAARRLLSTYWSDRSWDKWGQGTLVTVEP
Hi team, can someone confirm which has the larger Confirm OD450 Duplicate2: 1 or 2 ? Thanks. Bench note: the answer is the label of the chosen record.
2

FYI, the data here is from patent US20250163186A1.
